pIC50 by entry:
assay system: hCDK1/B (Homo sapiens, UniProt P06493)
Sequence (P06493 whole entry): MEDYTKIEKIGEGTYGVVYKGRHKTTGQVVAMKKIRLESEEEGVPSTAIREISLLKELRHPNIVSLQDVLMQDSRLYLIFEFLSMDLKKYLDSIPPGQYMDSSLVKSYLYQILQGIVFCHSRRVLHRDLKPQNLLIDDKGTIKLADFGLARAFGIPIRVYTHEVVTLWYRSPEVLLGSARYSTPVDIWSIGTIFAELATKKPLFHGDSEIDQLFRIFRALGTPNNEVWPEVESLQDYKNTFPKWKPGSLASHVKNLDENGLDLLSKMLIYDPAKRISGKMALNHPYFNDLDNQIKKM
Sequence (P14635 whole entry partner): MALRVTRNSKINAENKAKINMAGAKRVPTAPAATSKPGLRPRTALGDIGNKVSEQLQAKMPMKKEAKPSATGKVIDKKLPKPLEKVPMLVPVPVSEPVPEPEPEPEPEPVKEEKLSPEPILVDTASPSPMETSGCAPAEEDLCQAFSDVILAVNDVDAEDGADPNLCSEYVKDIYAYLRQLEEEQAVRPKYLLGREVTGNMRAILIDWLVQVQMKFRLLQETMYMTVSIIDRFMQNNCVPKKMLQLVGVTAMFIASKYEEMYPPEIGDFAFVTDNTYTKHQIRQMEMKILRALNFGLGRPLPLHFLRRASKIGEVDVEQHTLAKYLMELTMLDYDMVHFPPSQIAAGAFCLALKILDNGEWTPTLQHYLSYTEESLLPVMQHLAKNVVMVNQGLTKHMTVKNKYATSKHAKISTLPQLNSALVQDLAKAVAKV
test summary: hCDK1/B
Type: biochemical
assay setup: Table 2
pIC50: −log10 of the molar value.

Take a look at these entries with their results.
1) Cc1n[nH]cc1-c1ccnc(NCCC2CCCN2C)n1 (centres unmarked)	≤ 4.82
2) CC(C)c1n[nH]cc1-c1ccnc(NC2CCc3cc(F)ccc32)n1 (centres unmarked)	> 6.30
3) Cc1n[nH]cc1-c1ccnc(NCc2ccc(F)cc2)n1	> 5.00
4) COc1ccc(CNc2nccc(-c3c[nH]nc3C)n2)cc1	> 4.82
5) Cc1n[nH]cc1-c1ccnc(NC2CCC2)n1	> 5.30

**Query** Retrieve pIC50 measured for Cc1n[nH]cc1-c1ccnc(NCCCn2ccnc2)n1 and print it.
**Result** > 5.30

**Query** Retrieve pIC50 measured for Cc1n[nH]cc1-c1ccnc(NC2CCN(C)CC2)n1 and print it.
**Result** > 4.82

**Query** Retrieve pIC50 measured for Cc1n[nH]cc1-c1ccnc(NCc2cccc(C(F)(F)F)c2)n1 and print it.
**Result** > 5.00

**Query** Retrieve pIC50 measured for CC(C)c1n[nH]c(Br)c1-c1ccnc(NC2CCN(C)CC2)n1 and print it.
**Result** > 5.30

**Query** Retrieve pIC50 measured for Cc1n[nH]cc1-c1ccnc(NCC2CCCCC2)n1 and print it.
**Result** > 5.00

* * *

assay system: hCDK1/B (Homo sapiens)
test summary: hCDK1/B
Type: biochemical
assay setup: Table 2
pIC50: −log10 of the molar value.
pIC50 by entry:

1. Cc1cc(C)cc(CNc2nccc(-c3c[nH]nc3C)n2)c1	≤ 4.82

**Query** Retrieve pIC50 measured for CC(C)c1n[nH]cc1-c1ccnc(NCCCN(C)c2ccccc2)n1 and print it.
**Result** > 6.00

**Query** Retrieve pIC50 measured for CC(C)c1n[nH]cc1-c1ccnc(N[C@@H]2CCCc3ccccc32)n1 and print it.
**Result** > 5.30

**Query** Retrieve pIC50 measured for CC(C)c1n[nH]cc1-c1ccnc(NC2CCN(c3ccccc3)CC2)n1 and print it.
**Result** > 6.30

**Query** Retrieve pIC50 measured for CC(CN(C)C)Nc1nccc(-c2c[nH]nc2C(C)C)n1 (stereo not drawn) and print it.
**Result** > 5.00

**Query** Retrieve pIC50 measured for Cc1n[nH]cc1-c1ccnc(NCCCN(C)C)n1 and print it.
**Result** ≤ 4.82

**Query** Retrieve pIC50 measured for Cc1n[nH]cc1-c1ccnc(NCCN(C)C)n1 and print it.
**Result** ≤ 4.82

**Query** Retrieve pIC50 measured for Cc1n[nH]cc1-c1ccnc(NCC2CC2)n1 and print it.
**Result** > 5.00

**Query** Retrieve pIC50 measured for COCCNc1nccc(-c2c[nH]nc2C)n1 and print it.
**Result** ≤ 4.82

**Query** Retrieve pIC50 measured for CC(C)c1n[nH]cc1-c1ccnc(NCc2c(F)cccc2F)n1 and print it.
**Result** > 6.00

**Query** Retrieve pIC50 measured for Cc1n[nH]cc1-c1ccnc(NCCN2CCCCC2)n1 and print it.
**Result** ≤ 4.82

**Query** Retrieve pIC50 measured for CC(C)c1nn(C)cc1-c1ccnc(NC2CCN(C)CC2)n1 and print it.
**Result** > 5.30

**Query** Retrieve pIC50 measured for CC(C)c1n[nH]cc1-c1ccnc(NC(C)c2ccccc2)n1 (stereo not drawn) and print it.
**Result** > 6.00

**Query** Retrieve pIC50 measured for CC(C)c1n[nH]cc1-c1ccnc(NC2CCN(C)CC2)n1 and print it.
**Result** > 6.30

**Query** Retrieve pIC50 measured for Cc1n[nH]cc1-c1ccnc(NCCCN2CCCC2=O)n1 and print it.
**Result** ≤ 4.82

**Query** Retrieve pIC50 measured for CC(C)CNc1nccc(-c2c[nH]nc2C(C)C)n1 and print it.
**Result** > 6.30

**Query** Retrieve pIC50 measured for COc1cccc(CNc2nccc(-c3c[nH]nc3C)n2)c1 and print it.
**Result** ≤ 4.82

**Query** Retrieve pIC50 measured for COCCCNc1nccc(-c2c[nH]nc2C)n1 and print it.
**Result** > 4.82

**Query** Retrieve pIC50 measured for Cc1n[nH]cc1-c1ccnc(NCc2ccccn2)n1 and print it.
**Result** ≤ 4.82

**Query** Retrieve pIC50 measured for CC(C)c1n[nH]cc1-c1ccnc(NCc2ccccc2F)n1 and print it.
**Result** > 6.30

**Query** Retrieve pIC50 measured for CC(C)c1n[nH]cc1-c1ccnc(NC2CCN(C(=O)OC(C)(C)C)CC2)n1 and print it.
**Result** > 6.30
